These measurements were taken from PubChem BioAssay AID463203.

STUDY_TARGET: Glycogen synthase kinase-3 alpha (Homo sapiens)
TEST: concentration-response blocking of human GSK3A – biochemical, luminescence, cell-free homogeneous, retest, dose response (AID 463203)
RECORDED_CONDITIONS: GSK-3 alpha enzyme, ADP-Glo luminescence, 60 min
Calls of active or inactive are those of the source.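 The calls were made as follows: active = more than half of replicate measurements showing over 20% loss of kinase signal relative to plate controls; inconclusive = some but at most half of replicates over 20% loss; inactive = no replicate over 20% signal loss.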
// classify into YES for active, NO for inactive

Please state the recorded outcome for this molecule: NC(=O)c1ccc(N=C2C(=O)Nc3ccc([N+](=O)[O-])cc32)cc1 NO

Please state the recorded outcome for this molecule: COc1ccc(COC(=O)C2=C(C)NC(=O)NC2c2ccccc2F)cc1 (stereo unspecified) NO

Please state the recorded outcome for this molecule: CCOC(=O)N1CCC(N2CCN(S(=O)(=O)c3ccc(NC(C)=O)cc3)CC2)CC1 NO

Please state the recorded outcome for this molecule: Cc1c(C(=O)OCCOC(C)C)[nH]c2c1C(=O)CC(C)(C)C2 YES

Please state the recorded outcome for this molecule: COc1cc(C2CC(=O)Nc3n[nH]c(-c4ccccc4)c32)cc(OC)c1OC (stereo unspecified) NO

Please state the recorded outcome for this molecule: Cc1c(O)ccc2c3c(c(=O)oc12)CCCC3 YES

Please state the recorded outcome for this molecule: OCc1cn(-c2ccccc2)nn1 NO

Please state the recorded outcome for this molecule: CC(=O)c1cccc(-c2ccc3c(=O)[nH]c(Nc4ccccc4)cc3c2)c1 NO

Please state the recorded outcome for this molecule: CCCCCCCCCCOC(=O)Cn1c(COc2ccc(Cl)cc2)[n+](C)c2ccccc21 NO

Please state the recorded outcome for this molecule: Cc1cc2nc(-c3ccc(SCC(=O)NC(C)C)nc3)[nH]c2cc1C NO

Please state the recorded outcome for this molecule: COc1ccccc1C(=O)NC(C)c1ccccc1 (stereo unspecified) NO
